// values below are reported protein stability index
B1: SCNN1D (parent)
chain: RRPSPVLRHLELLDEFARENIDSL

# Variants of: B1
# measurement_notes: protein stability index of a GFP-peptide fusion (GPS, HEK-293T) (PSI 1-6); higher = more stable;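 further: lentivirally expressed fusions sorted by FACS into six bins by GFP to DsRed ratio, PSI derived from sequencing read proportions per bin multiplied by bin number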
# settings: c terminus: a fixed tail appended

Q: Could you tell me which protein stability index is on file for E19G ?
Result: 3.88

Q: What do we get for S4W ?
Result: 2.35

Q: Then V6R ?
Result: 2.43

Q: And what about the variant A17P ?
Result: 3.48

Q: Also check L10T
Result: 3.59
